Provenance of the data: patent US4761414A

- Test system: B. fragilis NCTC 9343
- assay_details: MIC/MBC against Bacteroides fragilis strain B
- Format: cell-based
- experimental_parameters: NCTC9343, 99.9% reduction in viable count
quantity_kind: MBC

INSERT INTO measurements (compound, target_under_test, quantity_kind, experimental_result) VALUES
  ('CCCC1(C)CN=C2C(c3ccccc3)=[N+]([O-])c3cccnc3N2C1 (stereo not shown)', 'B. fragilis NCTC 9343', 'MBC', '< 0.8 µg/mL'),
  ('CCCC1(C)CN=C2C(c3ccccc3)=[N+]([O-])c3cnccc3N2C1 (stereo not shown)', 'B. fragilis NCTC 9343', 'MBC', '< 0.8 µg/mL'),
  ('CC1CN=C2C(c3ccccc3)=[N+]([O-])c3cccnc3N2C1 (stereo not shown)', 'B. fragilis NCTC 9343', 'MBC', '1.5 µg/mL');

API: the following record is the query input.
Query block: Reported MBC, compound CCC1(C)CN=C2C(c3ccccc3)=[N+]([O-])c3cnccc3N2C1 (stereo not shown) : ____
Result block: < 0.8 µg/mL

----------
As a worked illustration, we turn to MIC data collected for Peptostreptococcus.

Known results for compounds:
INSERT INTO measurements (compound, quantity_kind, experimental_result) VALUES
  ('COc1ccc(C2=[N+]([O-])c3cccnc3N3CC(C)(C)CN=C23)cc1OC', 'MIC', '100 µg/mL'),
  ('Cc1ncc([N+](=O)[O-])n1CCO [Metronidazole, metronidazole, reference compound]', 'MIC', '100 µg/mL'),
  ('CC1(C)CN=C2C(c3ccc(Cl)cc3)=[N+]([O-])c3cnccc3N2C1', 'MIC', '> 100 µg/mL'),
  ('CC1(C)CN=C2C(c3ccccc3)=[N+]([O-])c3cccnc3N2C1', 'MIC', '25 µg/mL'),
  ('CC1(C)CN=C2C(c3ccc(Cl)cc3)=[N+]([O-])c3cccnc3N2C1', 'MIC', '25 µg/mL');

Each of the following entries comes with a recorded value; kindly state MIC for each.
1. CC1(C)CN=C2C(c3ccccc3)=[N+]([O-])c3cnccc3N2C1
2. Cc1ccc(C2=[N+]([O-])c3cccnc3N3CC(C)(C)CN=C23)cc1
3. CC1(C)CN=C2C(c3ccccc3)=[N+]([O-])c3ccncc3N2C1

Result block:
100 µg/mL
50 µg/mL
100 µg/mL

----------
So I've got a bunch of compounds here, and I need their MBC values.
- System: B. fragilis MZ-R ATCC 11295
- assay_details: MIC/MBC against Bacteroides fragilis strain D
- Assay type: cell-based
- experimental_parameters: ATCC11295, 99.9% reduction in viable count

Example entries begin here.
INSERT INTO results (compound, quantity_kind, experimental_result) VALUES
  ('CC1(C)CN=C2C(c3ccc(F)cc3)=[N+]([O-])c3cccnc3N2C1', 'MBC', '< 0.8 µg/mL'),
  ('CCCC1(C)CN=C2C(c3ccccc3)=[N+]([O-])c3cccnc3N2C1 (stereo not drawn)', 'MBC', '< 0.8 µg/mL'),
  ('CCC1(C)CN=C2C(c3ccc(C)cc3)=[N+]([O-])c3cccnc3N2C1 (stereo not drawn)', 'MBC', '< 0.8 µg/mL'),
  ('CC1(C)CN=C2C(c3ccc(F)cc3)=[N+]([O-])c3cnccc3N2C1', 'MBC', '< 0.8 µg/mL'),
  ('CCC1(CC)CN=C2C(c3ccccc3)=[N+]([O-])c3cnccc3N2C1', 'MBC', '1.5 µg/mL'),
  ('COc1ccc(C2=[N+]([O-])c3cnccc3N3CC(C)(C)CN=C23)cc1OC', 'MBC', '< 0.8 µg/mL'),
  ('CC1(C)CN=C2C(c3ccccc3)=[N+]([O-])c3cnccc3N2C1', 'MBC', '1.5 µg/mL'),
  ('CCC1(CC)CN=C2C(c3ccccc3)=[N+]([O-])c3cccnc3N2C1', 'MBC', '< 0.8 µg/mL'),
  ('CCCC1(C)CN=C2C(c3ccccc3)=[N+]([O-])c3cnccc3N2C1 (stereo not drawn)', 'MBC', '1.5 µg/mL'),
  ('CC1(C)CN=C2C(c3ccc(Cl)cc3)=[N+]([O-])c3cccnc3N2C1', 'MBC', '< 0.8 µg/mL');

Quick batch: MBC for everything below.
1. CCC1(C)CN=C2C(c3ccccc3)=[N+]([O-])c3cccnc3N2C1 (stereo not drawn)
2. CC1(C)CN=C2C(c3ccccc3)=[N+]([O-])c3ccncc3N2C1
3. CC1(C)CN=C2C(c3ccccc3)=[N+]([O-])c3cccnc3N2C1
4. CC1CN=C2C(c3ccccc3)=[N+]([O-])c3cnccc3N2C1 (stereo not drawn)
5. [O-][N+]1=C(c2ccccc2)C2=NCC3(CCCCC3)CN2c2ccncc21
6. COc1ccc(C2=[N+]([O-])c3cccnc3N3CC(C)(C)CN=C23)cc1OC
7. CC1(C)CN=C2C(c3ccc(Cl)cc3)=[N+]([O-])c3cnccc3N2C1

Result block:
< 0.8 µg/mL
3.1 µg/mL
1.5 µg/mL
< 0.8 µg/mL
< 0.8 µg/mL
< 0.8 µg/mL
< 0.8 µg/mL

Query block: Bench note: what MBC did [O-][N+]1=C(c2ccccc2)C2=NCC3(CCCCC3)CN2c2ncccc21 show?
Result block: < 0.8 µg/mL
